What gamma-GTP was measured for each of the following?
Species on record: Rattus norvegicus
Experiment: Open TG-GATES - Regimen: Daily Repeat
Type: toxicity, organism-based, Sprague-Dawley
Parameters: regimen Daily Repeat, gender Male, age 6 weeks
Details: in vivo, po, 10 mg/kg, 72 h, tissue Plasma, route gavage, dose level Low, time 3 day
Numbers only, in IU/L.

Worked examples, 3 compounds total:
> print(dat)
                                   compound  recorded.value
1  CC1=C(/C=C/C(C)=C/C=C/C(C)=C/CO)C(C)(C)CCC1 [RETINOL]               1
2  CC(C)OC(=O)C(C)(C)Oc1ccc(C(=O)c2ccc(Cl)cc2)cc1 [FENOFIBRATE]             1.2
3  CN(C)CCCN1c2ccccc2CCc2ccccc21 [IMIPRAMINE]               1

Item under review: CN(C)CCN(Cc1cccs1)c1ccccn1 . Reported gamma-GTP?
1.2

---

What Na was measured for each of the following?
Species: Rattus norvegicus
Assay: Open TG-GATES - Regimen: Daily Repeat
Format: toxicity, organism-based, Sprague-Dawley
Design: regimen Daily Repeat, gender Male, age 6 weeks
Conditions: in vivo, po, 0 mg/kg, 72 h, tissue Plasma, route gavage, dose level Control, time 3 day
Numbers only, in meq/L.

Worked examples, 8 compounds total:
compound	unit_descriptor	Na
O=C(CCCN1CCC(O)(c2ccc(Cl)cc2)CC1)c1ccc(F)cc1	meq/L	139.2
CN(C)CCN(Cc1cccs1)c1ccccn1	meq/L	142.6
COC1=CC(=O)C[C@@H](C)[C@]12Oc1c(Cl)c(OC)cc(OC)c1C2=O	meq/L	141
CN1C(=O)CN=C(c2ccccc2)c2cc(Cl)ccc21	meq/L	138.9
CC1=C(/C=C/C(C)=C/C=C/C(C)=C/CO)C(C)(C)CCC1	meq/L	141.2
CCOc1ccc(NC(=O)CC(C)O)cc1 (stereo unspecified)	meq/L	144
COc1ccc2[nH]c([S+]([O-])Cc3ncc(C)c(OC)c3C)nc2c1 (stereo unspecified)	meq/L	141.6
NNC(=O)c1ccncc1	meq/L	139.4

For each listed entry, give its Na.
1. NC(N)=Nc1nc(CSCCC(N)=NS(N)(=O)=O)cs1
2. CCOC(=O)CCC(=O)O[C@H]1[C@H](O[C@@H]2[C@@H](C)[C@H](O[C@H]3C[C@@](C)(OC)[C@@H](O)[C@H](C)O3)[C@@H](C)C(=O)O[C@H](CC)[C@@](C)(O)[C@H](O)[C@@H](C)C(=O)[C@H](C)C[C@@]2(C)O)O[C@H](C)C[C@@H]1N(C)C [ERYTHROMYCIN ETHYLSUCCINATE]
3. CCCNC(=O)NS(=O)(=O)c1ccc(Cl)cc1 [CHLORPROPAMIDE]

1. 139.8
2. 141
3. 142.2

---

Organism: Rattus norvegicus
Assay: Open TG-GATES - Regimen: Single
Assay type: toxicity, organism-based, Sprague-Dawley
Set-up: regimen Single, gender Male, age 6 weeks
Conditions: in vivo, po, 10 mg/kg, 24 h, tissue Blood, route gavage, dose level Low
What MCHC was measured for each of the following?
One number for each entry, in %.

Worked examples, 4 compounds total:
> print(dat)
                                   compound  recorded.value
1  CC(C)OC(=O)C(C)(C)Oc1ccc(C(=O)c2ccc(Cl)cc2)cc1 [FENOFIBRATE]            32.4
2                CN(C)CCN(Cc1cccs1)c1ccccn1            33.1
3  CN(C)CCCN1c2ccccc2CCc2ccccc21 [IMIPRAMINE]            32.3
4  CN(C)CCCN1c2ccccc2CCc2ccc(Cl)cc21 [CLOMIPRAMINE]            32.1

Please turn your attention to the following entry.
Item under review: CC1=C(/C=C/C(C)=C/C=C/C(C)=C/CO)C(C)(C)CCC1 [RETINOL] . Reported MCHC?
34.5

Cited source for all entries: ChEMBL document CHEMBL3885861
